Test system: Rattus norvegicus
Experiment: Prophylactic antiinflammatory activity against adjuvant arthritic rat at dose of 50 mg/kg in noninjected 2 degree paw.
Type: functional
Some molecules, each annotated with its measured inhibition in vivo at 50 mg/kg.

Answered cases to consult:
molecule: Cc1c(O)n(Cc2ccccc2)c2nc3c(n2c1=O)C(=O)N(C)CN3C
inhibition in vivo at 50 mg/kg: 69%
//
molecule: CN1CN(C)c2nc3n(Cc4ccccc4)c(=O)/c(=C\O)c(=O)n3c2C1=O
inhibition in vivo at 50 mg/kg: 32%
//
molecule: CN1CN(C)c2nc3n(Cc4ccccc4)c(O)c(C(=O)Nc4ccccc4)c(=O)n3c2C1=O
inhibition in vivo at 50 mg/kg: 23%
//
molecule: CN1CN(C)c2nc3n(Cc4ccccc4)c(O)c(Cc4ccccc4)c(=O)n3c2C1=O
inhibition in vivo at 50 mg/kg: 63%
//
molecule: C/C=C/Cc1c(O)n(Cc2ccccc2)c2nc3c(n2c1=O)C(=O)N(C)CN3C
inhibition in vivo at 50 mg/kg: 71%
//
molecule: CCCc1c(O)n(Cc2ccccc2)c2nc3c(n2c1=O)C(=O)N(C)CN3C
inhibition in vivo at 50 mg/kg: 70%
//
molecule: CN1CN(C)c2nc3n(Cc4ccccc4)c(O)c(C4C=CCCC4)c(=O)n3c2C1=O (stereo unspecified)
inhibition in vivo at 50 mg/kg: 13%
//
molecule: CN1CN(C)c2nc3n(Cc4ccccc4)c(O)c(Sc4ccccc4)c(=O)n3c2C1=O
inhibition in vivo at 50 mg/kg: 23%

Reported inhibition in vivo at 50 mg/kg for `C#CCc1c(O)n(Cc2ccccc2)c2nc3c(n2c1=O)C(=O)N(C)CN3C` : what is it?
13%

Would you mind doing `C=CCc1c(O)n(Cc2ccc(F)cc2)c2nc3c(n2c1=O)C(=O)N(C)CN3C` as well?
49%

Repeat for the following molecule: `CSc1c(O)n(Cc2ccccc2)c2nc3c(n2c1=O)C(=O)N(C)CN3C`
61%
